Assay Comment: HepG2 cell viability effects, profiling panel, calcein-AM fluorescence, 48 h, basal (AID 1164); further: test concentration not given here
Condition Context: higher = more signal
Quick rule: z-score of at least -0.2 means TRUE, below that means FALSE.

{"columns": ["Molecule", "Assigned Label"],
 "data": [
  ["CCOC(=O)[C@H](CC(C)C)NC(=O)CCC1CC(OC(=O)NCc2ccc3c(c2)OCO3)CC2(CCCC(COC(=O)NCC(c3ccccc3)c3ccccc3)O2)O1 (some centres undefined)", "FALSE"],
  ["C=CC[C@@H]1C=C[C@H](ON=C[C@@H](C)[C@H](OCc2ccccc2)C(C)C)[C@@H](CO)O1", "FALSE"],
  ["CC(C)=CCCC(C)=CCON=C1C[C@@H](O)[C@@H](O)[C@@H]2[C@@H]3C(=O)N(c4cccc(Oc5ccccc5)c4)C(=O)[C@@H]3CC[C@@H]12", "FALSE"],
  ["CO[C@H]1COC(=O)[C@@H](C)COC(=O)[C@@H](OCc2ccccc2)C=C[C@@H]1C", "TRUE"],
  ["CO[C@H]1COC(=O)[C@H](C)NC(=O)[C@@H](C)COC(=O)[C@H]2CCCN2C(=O)CC=C[C@H]1C", "TRUE"],
  ["C#CCCCON=C1C[C@@H](O)[C@@H](O)[C@@H]2[C@@H]3C(=O)N(c4ccc(F)cc4F)C(=O)[C@@H]3CC[C@H]12", "TRUE"],
  ["CCOC(=O)[C@H](CC(C)C)NC(=O)CCC1CC(OC(=O)NCc2ccc3c(c2)OCO3)CC2(CCCC(COC(=O)NCCCN3CCCC3=O)O2)O1 (some centres undefined)", "TRUE"],
  ["O=c1n(-c2ccccc2)c(=O)n2n1CC[C@@H]1C(=NOCc3ccccc3)[C@H]3O[C@H]3[C@@H](O)[C@@H]12", "TRUE"],
  ["CO[C@H]1COC(=O)CC=C[C@@H](C)[C@H](NS(=O)(=O)c2ccc(C)cc2)COC(=O)CCC[C@@H]1C", "TRUE"],
  ["CO[C@@H]1COC(=O)[C@H](CCSC)NC(=O)CC=C[C@@H](C)COC(=O)[C@H](C)NC(=O)CC=C[C@H]1C", "TRUE"],
  ["COc1cccc([C@H]2Oc3ccc(OC)cc3C(=NO[C@@H](C)c3cn([C@H](CO)Cc4ccccc4)nn3)[C@@H]2O)c1", "FALSE"],
  ["O=C1C[C@@H](O)[C@@H](O)[C@@H]2[C@@H]3C(=O)N(C[C@@H]4CCCO4)C(=O)[C@@H]3CC[C@@H]12", "TRUE"],
  ["COC(=O)[C@@H]1CC[C@H](C)[C@@H](c2ccc(C)cc2)N1C(=O)c1ccc(C=NO[C@H](C)c2cn([C@H](CO)Cc3ccccc3)nn2)cc1", "FALSE"],
  ["CC(C)(C)N1C(=O)[C@H]2[C@H]3[C@H](O)[C@H](O)CC(=NOCc4ccccc4)[C@H]3CC[C@H]2C1=O", "FALSE"]
]}

###

Below: a set of entries, each annotated with reported composite z-score.
Assay Comment: small-molecule microarray binders of probe aWnt5a, primary screen, biochemical, biotinylated probe, 635/667 nm fluorescence (AID 1113);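 further: score merges 667 nm fluorescence intensity with signal-to-noise per printed feature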
Condition Context: higher = more signal

{"columns": ["Compound", "composite z-score"],
 "data": [
  ["CCN1C(=O)[C@H]2[C@H]3[C@H](O)[C@H](O)CC(=NOC[C@H]4O[C@H](c5ccccc5)C=C[C@@H]4Oc4ccc(OC)cc4)[C@@H]3CC[C@H]2C1=O", -0.0045],
  ["CCOC(=O)CCN1C(=O)[C@H]2[C@H]3[C@H](O)[C@H](O)CC(=NOCc4ccccc4)[C@H]3CC[C@H]2C1=O", -0.174],
  ["COC(=O)[C@@H]1CC[C@H](C)[C@@H](c2ccc(C)cc2)N1C(=O)c1ccc(C=NO[C@H](C)c2cn([C@H](CO)Cc3ccccc3)nn2)cc1", -0.124],
  ["CCN1C(=O)[C@H]2[C@H]3[C@H](O)[C@H](O)CC(=NO[C@@H](C)c4cn([C@H](CO)Cc5ccccc5)nn4)[C@@H]3CC[C@H]2C1=O", -0.0403],
  ["C[C@@H](c1ccccc1)N1C(=O)[C@H]2[C@H]3[C@H](O)[C@H](O)CC(=NO[C@@H]4O[C@H](CO)[C@@H](O)[C@H](O)[C@H]4O)[C@H]3CC[C@H]2C1=O", -0.196],
  ["CCOC(=O)CCN1C(=O)[C@H]2[C@H]3[C@H](O)[C@H](O)CC(=NOCC(C)C)[C@H]3CC[C@H]2C1=O", -0.0346],
  ["COCCNC(=O)OCC1CCCC2(CC(OC(=O)NCc3ccc4c(c3)OCO4)CC(CCC(=O)N[C@@H](C)C(=O)OC)O2)O1 (some centres undefined)", -0.0819],
  ["CCOC(=O)[C@H](Cc1ccccc1)NC(=O)CCC1CC(OC(=O)NCCc2ccc(F)cc2)CC2(CCCC(COC(=O)NCCc3ccc(Cl)cc3)O2)O1 (some centres undefined)", -0.158],
  ["CC(CCN1CCCCc2nc(C)c(C)cc21)=NOC[C@@H](O)COCc1ccco1", -0.129],
  ["CCCNC(=O)OC[C@H]1O[C@H](c2ccccc2)C=C[C@@H]1Oc1ccc(OC)cc1", -0.132],
  ["COC(=O)[C@@H]1CC[C@@H](C)[C@H](c2ccc(Br)cc2)N1", -0.136],
  ["C[C@@H](c1ccccc1)N1C(=O)[C@H]2[C@H]3[C@H](O)[C@H](O)CC(=NO[C@@H]4O[C@H](CO)[C@@H](O)[C@H](O)[C@H]4O)[C@@H]3CC[C@H]2C1=O", -0.0403],
  ["CC(CCN1CCCc2nc(C)c(C)cc21)=NOC(C)CN1CCCCc2nc(C)c(C)cc21 (centres undefined)", 0.159],
  ["CC(C)C[C@H](NC(=O)CCC1CC(OC(=O)NCc2cccc3ccccc23)CC2(CCCC(COC(=O)NCc3ccccc3)O2)O1)C(=O)NCC(c1ccccc1)c1ccccc1 (some centres undefined)", -0.0825]
]}
